Hello, the source for this data is PubChem BioAssay (NCATS), in case you need it.

assay: qHTS Counterscreen for compound interference against the NCATS DSHEA and TCM libraries (AID 1919978); settings: firefly luciferase detection reagent interference, luminescence;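 note: compounds preincubated with 1 µM D-luciferin or buffer before detection reagent; % of control where 0% means no effect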
Items are presented alongside their recorded max response.
The figure you give is taken to be in %; do not add the unit.

Challenge: Please indicate max response recorded for `C=C(C)[C@H]1CC=C(C)C(=O)C1`
Response given: 1.32

---

molecular target: 3',5'-cyclic-AMP phosphodiesterase 4B (Homo sapiens); experiment: qHTS Assay for Inhibitors of PDE-IV (AID 607); details: HEK293 ACTOne CNG channel cells, membrane potential fluorescence; series mostly up to 22.9 µM; note: % of control where 0% means no effect
Records with an inconclusive call do not appear. Activity calls are given as the source filed them. The call rests on the fitted dose curve; in most records, active means well fitted activation curve with a large enough effect in the main read-out, with a control signal flat (not every such curve was filed as active); inconclusive means small, poorly fitted or top-dose-only effect, or effect the other way, or a change in a side signal; inactive means flat fitted curve, though single readings scatter.
measured_endpoint: outcome

The cases that follow already have their outcome on record.
- input_smiles: "FC(F)(F)c1cc(CN2CC[C@@]3(CCCNC3)C2)cc(C(F)(F)F)c1"
  outcome: "inactive"
- input_smiles: "O=C(c1cccc(F)c1)N1CCC2(CCCN(Cc3nccs3)C2)CC1"
  outcome: "inactive"
- input_smiles: "COCC(=O)N1CCC[C@@]2(CCN(Cc3nccs3)C2)C1"
  outcome: "inactive"
- input_smiles: "O=c1c(-c2cccs2)nc2cncnc2n1Cc1ccc(F)cc1"
  outcome: "inactive"
- input_smiles: "COc1ccccc1CNc1ccnc(-c2ccccc2OC)n1"
  outcome: "inactive"

Challenge: Please indicate outcome recorded for `CC(=O)N1CCC2(CC1)CN(Cc1ccc(C#N)cc1)C2`
Response given: inactive
